Test system: NCI-H460
Experiment: Cytotoxicity assay (SRB, 72 h) NCI-H460
Type: cell-based, Human
Settings: 72 h, SRB assay; read-out: IC50 ± SD NCI-H460
measurement_name: IC50

QUERY: # returns recorded IC50 (system: NCI-H460) for `CCc1c2c(nc3ccc(OCCCCCCC(=O)NO)cc13)-c1cc3c(c(=O)n1C2)COC(=O)[C@]3(O)CC`
RESULT: 360 nM

----------
Test system: A431
Test: Cytotoxicity assay (SRB, 72 h) A431
Format: cell-based, Human
Conditions: Homo sapiens, A-431, read-out: IC50 ± SD A431
measurement_name: pIC50
Please report pIC50 as the negative decimal logarithm of the molar concentration, giving only the number.

Completed entries (count: 3):
molecule="CCc1c2c(nc3ccc(OC(=O)N4CCC(N5CCCCC5)CC4)cc13)-c1cc3c(c(=O)n1C2)COC(=O)[C@]3(O)CC [Irinotecan]" reported_result=5.39
molecule="CC[C@@]1(O)C(=O)OCc2c1cc1n(c2=O)Cc2c-1nc1ccccc1c2C=NOCCCCCC(=O)NO [Compound 3b]" reported_result=8.40
molecule="CC[C@@]1(O)C(=O)OCc2c1cc1n(c2=O)Cc2c-1nc1ccc(O)cc1c2C=NOCCCCCC(=O)NO [Compound 3d]" reported_result=6.85

QUERY: Please give the measured pIC50 for this molecule: CC[C@@]1(O)C(=O)OCc2c1cc1n(c2=O)Cc2c-1nc1ccccc1c2C=NOCCCCCCC(=O)NO [Compound 3c]
RESULT: 7.59
